Values compiled from ChEMBL document CHEMBL6109097.

# Tested on: Human immunodeficiency virus 1
# protocol-text: Antiviral activity against NNRTI-resistant HIV-1 harboring Y188L mutant infected in human MT4 cells assessed as protection against virus-induced cytopathic effect incubated for 5 days by MTT assay
# Format: functional, organism-based
# test-context: Human immunodeficiency virus 1, MT4, 120 h
endpoint: log10 of EC50 (log10 of the value in µM)

structure-smiles-string	log10 of EC50
Cc1cc(/C=C/C#N)cc(C)c1Oc1nc(Nc2ccc(N3CCS(=O)(=O)CC3)c(C#N)c2)ncc1-c1cccnc1	-0.14
Cc1cc(/C=C/C#N)cc(C)c1Oc1nc(Nc2ccc(N3CCS(=O)(=O)CC3)c(F)c2)ncc1-c1cncnc1	0.10
Cc1cc(/C=C/C#N)cc(C)c1Oc1nc(Nc2ccc(N3CCN(S(C)(=O)=O)CC3)c(F)c2)ncc1-c1ccc(N)nc1	-0.15
O=C1Nc2ccc(Cl)cc2[C@@](C#CC2CC2)(C(F)(F)F)O1	-0.55
Cc1cc(/C=C/C#N)cc(C)c1Oc1nc(Nc2ccc(N3CCS(=O)(=O)CC3)c(F)c2)ncc1-c1cnc(F)nc1	0.81
Cc1cc(/C=C/C#N)cc(C)c1Oc1nc(Nc2ccc(N3CCN(S(C)(=O)=O)CC3)c(C#N)c2)ncc1-c1ccc(N)nc1	-0.60
Cc1cc(/C=C/C#N)cc(C)c1Oc1nc(Nc2ccc(N3CCN(S(C)(=O)=O)CC3)c(F)c2)ncc1-c1cncnc1	0.34
Cc1cc(/C=C/C#N)cc(C)c1Oc1nc(Nc2ccc(N3CCN(S(C)(=O)=O)CC3)c(F)c2)ncc1-c1cccnc1	0.31
Cc1cc(/C=C/C#N)cc(C)c1Oc1nc(Nc2ccc(N3CCS(=O)(=O)CC3)c(F)c2)ncc1-c1cccnc1	0.19
Cc1cc(C#N)cc(C)c1Oc1nc(Nc2ccc(C#N)cc2)nc(N)c1Br	-1.64
Cc1cc(/C=C/C#N)cc(C)c1Oc1nc(Nc2ccc(N3CCN(S(C)(=O)=O)CC3)c(C#N)c2)ncc1-c1cccnc1	-0.26
Cc1cc(/C=C/C#N)cc(C)c1Oc1nc(Nc2ccc(N3CCN(S(C)(=O)=O)CC3)c(C#N)c2)ncc1-c1cncnc1	-0.05
Cc1cc(/C=C/C#N)cc(C)c1Oc1nc(Nc2ccc(N3CCN(S(C)(=O)=O)CC3)c(F)c2)ncc1-c1ccc(F)nc1	0.66

---

# Test system: Human immunodeficiency virus 1
# protocol-text: Antiviral activity against NNRTI-resistant HIV-1 harboring E138K mutant infected in human MT4 cells assessed as protection against virus-induced cytopathic effect incubated for 5 days by MTT assay
# Assay type: functional, organism-based
# test-context: Human immunodeficiency virus 1, MT4, 120 h

structure-smiles-string	units-symbol	EC50
Cc1cc(/C=C/C#N)cc(C)c1Oc1nc(Nc2ccc(N3CCS(=O)(=O)CC3)c(C#N)c2)ncc1-c1cccnc1	nM	50
Cc1cc(/C=C/C#N)cc(C)c1Oc1nc(Nc2ccc(N3CCN(S(C)(=O)=O)CC3)c(C#N)c2)ncc1-c1cncnc1	nM	49
Cc1cc(/C=C/C#N)cc(C)c1Oc1nc(Nc2ccc(N3CCN(S(C)(=O)=O)CC3)c(F)c2)ncc1-c1ccc(F)nc1	nM	51

---

// selectivity ratio lookup, one value per entry
# protocol-text: Selectivity index, ratio of CC50 for cytotoxicity against human MT4 cells assessed as reduction in cell viability to EC50 for antiviral activity against human MT4 cells assessed as protection against virus-induced cytopathic effect
# Assay type: toxicity, cell-based
# test-context: read-out: Ratio CC50/EC50

structure-smiles-string	selectivity ratio
Cc1cc(/C=C/C#N)cc(C)c1Oc1nc(Nc2ccc(N3CCN(S(C)(=O)=O)CC3)c(C#N)c2)ncc1-c1ccc(F)nc1	> 7620
Cc1cc(/C=C/C#N)cc(C)c1Oc1nc(Nc2ccc(N3CCN(S(C)(=O)=O)CC3)c(F)c2)ncc1-c1cccnc1	> 2140
Cc1cc(/C=C/C#N)cc(C)c1Oc1nc(Nc2ccc(N3CCN(S(C)(=O)=O)CC3)c(F)c2)ncc1-c1cncnc1	> 12900
